Just for reference, ChEMBL document CHEMBL3396982 is where these values come from.

assayedTarget: Thyroid hormone receptor beta (Homo sapiens, UniProt P10828)
Sequence (P10828 whole entry, the tested form may be a part): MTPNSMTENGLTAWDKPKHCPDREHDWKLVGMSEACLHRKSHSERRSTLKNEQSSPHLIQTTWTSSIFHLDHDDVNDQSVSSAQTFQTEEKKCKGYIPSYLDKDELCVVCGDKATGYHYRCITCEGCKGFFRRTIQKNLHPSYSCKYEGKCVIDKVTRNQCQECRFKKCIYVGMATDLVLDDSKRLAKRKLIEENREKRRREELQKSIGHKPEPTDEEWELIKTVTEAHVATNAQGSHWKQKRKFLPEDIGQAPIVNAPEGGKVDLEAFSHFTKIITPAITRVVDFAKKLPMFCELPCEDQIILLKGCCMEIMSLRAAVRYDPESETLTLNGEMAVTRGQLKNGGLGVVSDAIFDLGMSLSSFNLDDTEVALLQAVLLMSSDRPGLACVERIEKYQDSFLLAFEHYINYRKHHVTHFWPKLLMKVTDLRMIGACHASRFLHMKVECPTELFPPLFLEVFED
testMethodNotes: Agonist activity at TRbeta (unknown origin) expressed in human HuH7 cells after 24 hrs by Gal4 CTF cell-based assay
parameter: EC50 (nM)
I only need the number, in nM, no unit after it.

The value of EC50 recorded for Cc1cn(Cc2ccc(O)c(Cc3ccccc3)c2)c2ccc(OCC(=O)O)cc12 when tested on Thyroid hormone receptor beta (Homo sapiens, UniProt P10828) reads 406

* * *

assayedTarget: Thyroid hormone receptor beta (Homo sapiens)
testMethodNotes: Displacement of [125I]-L-3,5,3'-triiodothyronine from human TRbeta expressed in human Hela cell lysate measured after overnight incubation by competition binding assays
Type: cell-free
Assign labels as follows, please: Criterion met for Ki below 0.5 nM; Criterion not met for Ki equal to or exceeding 0.5 nM.

Q: Does the reported Ki of the following compound sit strictly below 0.5 nM? Cc1cc2cc(OCC(=O)O)cc(Cl)c2n1Cc1ccc(O)c(C(C)C)c1
Result: Criterion met

Q: Does the reported Ki of the following compound sit strictly below 0.5 nM? CC(C)c1cc(Cn2ccc3cc(OCC(=O)O)cc(Cl)c32)ccc1O
Result: Criterion met

Q: Does the reported Ki of the following compound sit strictly below 0.5 nM? Cc1cn(Cc2ccc(O)c(C(C)C)c2)c2c(Cl)cc(OCC(=O)O)cc12
Result: Criterion met

Q: Does the reported Ki of the following compound sit strictly below 0.5 nM? Cc1cn(Cc2ccc(O)c(CC3CCCCC3)c2)c2ccc(OCC(=O)O)cc12
Result: Criterion not met

Q: Does the reported Ki of the following compound sit strictly below 0.5 nM? Cc1cc(OCC(=O)O)cc2ccn(Cc3ccc(O)c(C(C)C)c3)c12
Result: Criterion met

Q: Does the reported Ki of the following compound sit strictly below 0.5 nM? Cc1cn(Cc2ccc(O)c(C(C)C)c2)c2ccc(OCC(=O)O)cc12
Result: Criterion met

Q: Does the reported Ki of the following compound sit strictly below 0.5 nM? CC(C)c1cc(Cn2ccc3cc(OCC(=O)O)ccc32)ccc1O
Result: Criterion not met

Q: Does the reported Ki of the following compound sit strictly below 0.5 nM? Cc1cn(Cc2ccc(O)c(Cc3ccccc3)c2)c2ccc(OCC(=O)O)cc12
Result: Criterion not met

Q: Does the reported Ki of the following compound sit strictly below 0.5 nM? Cc1cn(Cc2ccc(O)c(C3CCCCC3)c2)c2ccc(OCC(=O)O)cc12
Result: Criterion not met

Q: Does the reported Ki of the following compound sit strictly below 0.5 nM? Cc1cn(Cc2ccc(O)c(-c3ccccc3)c2)c2ccc(OCC(=O)O)cc12
Result: Criterion not met
